From: patent US6844358B2

This listing pairs compounds with measured pIC50.
target-system: recombinant rat protein tyrosine phosphatase, PTP1B (rPTP1B) (Rattus norvegicus)
Sequence (P20417 1-432): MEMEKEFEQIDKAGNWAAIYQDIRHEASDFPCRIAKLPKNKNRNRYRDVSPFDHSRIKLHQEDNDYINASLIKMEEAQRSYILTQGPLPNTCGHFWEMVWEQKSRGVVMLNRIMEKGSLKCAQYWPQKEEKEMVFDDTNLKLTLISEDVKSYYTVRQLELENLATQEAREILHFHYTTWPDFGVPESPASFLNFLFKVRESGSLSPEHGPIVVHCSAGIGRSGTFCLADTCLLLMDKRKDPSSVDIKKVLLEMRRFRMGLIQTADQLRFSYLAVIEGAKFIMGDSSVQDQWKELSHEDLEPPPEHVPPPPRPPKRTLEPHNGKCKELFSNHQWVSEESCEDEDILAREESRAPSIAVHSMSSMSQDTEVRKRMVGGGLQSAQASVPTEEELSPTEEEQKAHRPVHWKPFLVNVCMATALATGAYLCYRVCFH
Type: biochemical
measurement-setup: rPTP1B; read-out: IC50
Note: pIC50 values are expressed as the negative base-10 logarithm of concentration in M.

Please review the following examples before continuing.
structure-notation: CCCCc1oc2ccccc2c1C(=O)c1cc(I)c(O)c(I)c1
recorded-endpoint: pIC50
measured-number: 6.72
//
structure-notation: O=C(c1cc(Br)c(O)c(Br)c1)c1c(CCc2ccccc2)oc2ccccc12
recorded-endpoint: pIC50
measured-number: 5.59

Problem: Record `O=C(c1cc(Br)c(O)c(Br)c1)c1c(Cc2ccccc2)sc2ccccc12` : what is its pIC50 with recombinant rat protein tyrosine phosphatase, PTP1B (rPTP1B) (Rattus norvegicus)?
Result: 5.40

====

This listing pairs compounds with measured change in vivo at 100 mg/kg.
System: diabetic (ob/ob) mice
test: Blood glucose lowering activity in diabetic (ob/ob) mice
Format: in vivo
measurement-setup: Mus musculus, po, suffix a = no significant activity at this dose, read-out: % Change Insulin from Vehicle
Give just the number in %; leave the unit off.

structure-notation: CCCCc1oc2ccccc2c1C(=O)c1cc(Br)c(OCC(=O)O)c(Br)c1
measured-number: -54.8
//
structure-notation: CCc1oc2ccccc2c1C(=O)c1cc(Br)c(O)c(Br)c1O
measured-number: -61.8
//
structure-notation: CCc1oc2ccccc2c1C(=O)c1c(Br)cc(Br)c(O)c1Br
measured-number: -31.2

Problem: Record `CCCCc1oc2ccccc2c1C(=O)c1cc(I)c(O)c(I)c1` : what is its change in vivo at 100 mg/kg with diabetic (ob/ob) mice?
Result: -73.7

Problem: Record `CCc1oc2ccccc2c1Cc1cc(Br)c(O)c(Br)c1` : what is its change in vivo at 100 mg/kg with diabetic (ob/ob) mice?
Result: -56.6

====

This listing pairs molecules with measured % Change from Control at 50 μM.
Tested on: rat hepatic microsomal PTPases
measurement-setup: 50 μM compound, rat hepatic microsomal PTPase
Give just the number in %; leave the unit off.

molecule: CCCCc1oc2ccccc2c1Cc1cc(Br)c(O[C@H](Cc2ccccc2)C(=O)O)c(Br)c1 [Example 23]
unit-spec: %
% Change from Control at 50 μM: −85
--
molecule: CCCCc1oc2ccccc2c1C(=O)c1cc(Br)c(O[C@H](Cc2ccccc2)C(=O)O)c(Br)c1 [Example 22]
unit-spec: %
% Change from Control at 50 μM: −77
--
molecule: CCc1oc2ccccc2c1C(=O)c1cc(Br)c(OCC(=O)O)c(Br)c1 [Example 2]
unit-spec: %
% Change from Control at 50 μM: −25

Proceeding to the next molecule to report its % Change from Control at 50 μM.
Problem: Which % Change from Control at 50 μM value is on record for CCc1oc2ccccc2c1Cc1cc(Br)c(O)c(Br)c1 [Example 3] ?
Result: −34

====

This listing pairs compounds with measured change in vivo at 100 mg/kg.
Test system: diabetic (ob/ob) mice
test: Blood glucose lowering activity in diabetic (ob/ob) mice
Assay type: in vivo
measurement-setup: Mus musculus, po, suffix a = no significant activity at this dose, read-out: % Change Insulin from Vehicle
Give just the number in %; leave the unit off.

structure-notation: O=C(c1cc(Br)c(O)c(Br)c1)c1c(Cc2ccccc2)oc2ccccc12
measured-number: -40.7
//
structure-notation: CCc1oc2ccc(Cl)cc2c1C(=O)c1cc(Br)c(O)c(Br)c1
measured-number: -74.5
//
structure-notation: O=C(c1cc(Br)c(O)c(Br)c1)c1c(Cc2ccccc2)sc2ccccc12
measured-number: -53.2

Problem: Which change in vivo at 100 mg/kg value is on record for `O=C(c1cc(I)c(O)c(I)c1)c1c(Cc2ccccc2)oc2ccccc12` ?
Result: -73.7
